system: Saccharomyces cerevisiae; test: protein stability index of tFT-peptide fusion (C-terminal peptide) (PSI (0-1 scale)); higher = more stable (slower turnover); details: genetic background: wild type; temperature: 30 C;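 note: PSI is a weighted mean of sequencing reads over stability bins, variants kept only with over 10 reads, mCherry proximal and sfGFP distal, peptide attached via GGGS linker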
REPORTED_ENDPOINT: protein stability index
No unit in the answer, only the number.

Below, each entry is followed by its recorded protein stability index result.
>>> print(df.to_string())
   residue_codes           subject_of_test        reported_endpoint  observed_measurement
0   PPPLPPLPTALS  Saccharomyces cerevisiae  protein stability index                 0.693
1   SCRVSFLFFLFE  Saccharomyces cerevisiae  protein stability index                 0.562
2   SSVLLMFFCFVC  Saccharomyces cerevisiae  protein stability index                 0.262
3   LSLFFSSFLITF  Saccharomyces cerevisiae  protein stability index                 0.628
4   TYGRPICFSFKR  Saccharomyces cerevisiae  protein stability index                 0.701
5   SSLGLFISTASV  Saccharomyces cerevisiae  protein stability index                 0.664
6   VACSVVVPGLGG  Saccharomyces cerevisiae  protein stability index                  0.69
7   GAAVSGGRARCP  Saccharomyces cerevisiae  protein stability index                 0.712
8   IGMVSELLLFYP  Saccharomyces cerevisiae  protein stability index                  0.72
9   PPPHPPPPPLPS  Saccharomyces cerevisiae  protein stability index                 0.635

The reported protein stability index of the sequence "PLPFPFPLCSQS" was 0.64

The reported protein stability index of the sequence "RAVAGGPMPGSG" was 0.732

====

system: Saccharomyces cerevisiae; test: protein stability index of tFT-peptide fusion (C-terminal peptide) (PSI (0-1 scale)); higher = more stable (slower turnover); conditions: genetic background: cdc53-1; temperature: 37 C
Readings of protein stability index for the listed sequences
No unit in the answer, only the number.

Below, each entry is followed by its recorded protein stability index result.
>>> df
   residue_codes  observed_measurement
0   LGALFGRFWWYF                 0.742
1   GFSEGRLTIPVY                 0.495
2   SVVFFYPPIFHA                 0.739
3   DYSVIPSLALLP                 0.731
4   DDVRFLLWGLCC                 0.459
5   FSVLLLANFCFF                 0.516

The reported protein stability index of the sequence "GFYQSGGLVVVV" was 0.674

The reported protein stability index of the sequence "IIFACFYGVFLM" was 0.0619

The reported protein stability index of the sequence "FGFFLFIFFFFR" was 0.295

The reported protein stability index of the sequence "GGGGGGGDVLVW" was 0.363

The reported protein stability index of the sequence "ILDRRPRTFALV" was 0.644

The reported protein stability index of the sequence "RSGWWQWGRPGT" was 0.753

====

test system: Saccharomyces cerevisiae; experiment: protein stability index of tFT-peptide fusion (C-terminal peptide) (PSI (0-1 scale)); higher = more stable (slower turnover); details: genetic background: wild type; temperature: 30 C
REPORTED_ENDPOINT: protein stability index
No unit in the answer, only the number.

Below, each entry is followed by its recorded protein stability index result.
>>> print(df.to_string())
   residue_codes           subject_of_test        reported_endpoint  observed_measurement
0   YVSHLLMVGRFI  Saccharomyces cerevisiae  protein stability index                 0.616
1   TNGHNGQENGEE  Saccharomyces cerevisiae  protein stability index                 0.602
2   THFPFPVLFSLP  Saccharomyces cerevisiae  protein stability index                 0.592
3   GGDGAVSRRWGR  Saccharomyces cerevisiae  protein stability index                 0.685
4   TLFPPLCVFSFC  Saccharomyces cerevisiae  protein stability index                 0.587
5   GRYSGSFWSFWS  Saccharomyces cerevisiae  protein stability index                 0.719
6   LPPGSTPDSPTL  Saccharomyces cerevisiae  protein stability index                 0.706
7   MAHAYTRKDTRK  Saccharomyces cerevisiae  protein stability index                  0.64
8   QGERHCCILVST  Saccharomyces cerevisiae  protein stability index                 0.555
9   ESRARCGEQAIY  Saccharomyces cerevisiae  protein stability index                 0.641

Please look at the following sequence next.
The reported protein stability index of the sequence "CKRDENKKIILR" was 0.727
